system: PPARg:RXRa DBDmut IVT, anti-RXR (DBD mutation: RXRa K156A/R161A, NR concentration 270 nM, RXRa partner concentration 90 nM); assay: PBM binding z-score (relative to random genomic background probes); higher = stronger binding; sequences stand for … in GC…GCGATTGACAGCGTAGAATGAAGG
Would you kindly list PBM binding z-score for each of these sequences?
I'd appreciate a reply containing only the number, no unit.

Fill in reported PBM binding z-score for this entry: CTCGAAAGGTCGTGCTCAGGTGAGTATCCCAAAC
0.866

Look up and state reported PBM binding z-score for CGTCCAAGGTCAGAGAGGTCAGTAAATGCCGAGT
2.74

Read off the recorded PBM binding z-score for TCTATTAGTTGAAGGGCAACCGGCGAGTCCGTTT
2.36

Look up and report measured PBM binding z-score for this entry: ACTAGTTGGTCAGCTGAGGTCACACGCAATTCGG
1.54

Kindly indicate its recorded PBM binding z-score. Item: CCTACTGGGCCAAAAAGGTCACTGATGCCGATAA
3.78

Give recorded PBM binding z-score. CAGCCTCGGTCAGGGCCAGTATAGGAGGAACGTT
-0.887

Look up PBM binding z-score of CCTCGGAGGACAAGAGGAGGTCAGAGCTGCCAGA and report it.
-0.0535

Please give measured PBM binding z-score of the following entry: TTACCAAGGTGAAGGCCGTTGATCCCTCTGTAGA
1.67

Please indicate PBM binding z-score recorded for TCTTGCAGATCAGCAGGTTAAGAAAGCTGGCCAA
0.806

Give the measured PBM binding z-score for ACAGGCAGGTGAGTGAAGGTAACTCAGCTGGACG
0.549

Give the value of PBM binding z-score reported for the following: TCTATTAGTTGATTAGGGCAACCGTAACAGCGGA
2.24

Using known records, supply PBM binding z-score for TCATATGGGTAAACAGGTGAAAGTCCGTAAGTTA
4.06

Retrieve PBM binding z-score measured for CCTACTGGGCCAAAAAGGTCATAGATGCCGATAA and print it.
3.18

Input TGTCAAAGTTCAAAGGTAACCTAAGTATCCACAC , output reported PBM binding z-score.
0.886

Fill in reported PBM binding z-score for this entry: AGATGTAGGTTAGCTGGGGTCATTCAGACTAGGC
5.87

For the sequence GGAACAAGGGCAAAGTTGATAGCATCTGTCGACG , give its reported PBM binding z-score.
2.8

Please report the measured PBM binding z-score for ACTTACCGGTCAACGAGGTTATAGCACGCGTATA
1.22

Recall and state the measured PBM binding z-score for CCTAGTTGGTCAGGAGGTCTCACACCGGATATGA .
0.196

Give the measured PBM binding z-score for TATACAGGGGCAAAGGCCAGAGTACGAATGTCGA
0.641

Dear colleague, please send me the reported PBM binding z-score for TCTTGTAGATCAGCAGGTGAAGAAAGCTGGCCAA when you can.
1.32

In one line, give reported PBM binding z-score of the entry CCTGCTAGGTCATGGTCAGCTAGTCTACAGTATG .
4.65

Please report the measured PBM binding z-score for CGTGCAAGGTCAATGCTAGGTCAGTGAAAGCATT
3.32

Tell me its PBM binding z-score given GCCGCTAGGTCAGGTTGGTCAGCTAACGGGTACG as the entry.
2.34

Supply reported PBM binding z-score belonging to this sequence: ACTATCAGTTGACTTAGGGCAACCGATACGACGC
-0.371

Could you please provide reported PBM binding z-score for ATATGCAGGTTACATCCGGGTCATTCAGGCTATG ? Thanks!
3.86

Query PBM binding z-score for GCTGCTAGGTCAGGTTGGTTAGCTAACGGGTACG
3.18

Retrieve PBM binding z-score measured for CCTTCTAGGTCATGGTCAGCTAATCTACAGTATG and print it.
7.22

Supply recorded PBM binding z-score for CGAACGAGGGCATGAGTTTATAGCAAATGCCGAT here.
3.26

Consider the sequence CCTGCTAGGTCAATGGTCAGGTAAAGCAGCTCGC . State its measured PBM binding z-score.
4.38

Query PBM binding z-score for CATACAGGGTCAGCTTGGCCAGAGTAGGGACGGC
1.04

Fill in PBM binding z-score for record AGAATGAGGTTATACTTAGATCAGGGAAGAAAGT
2.72

Fill in reported PBM binding z-score for this entry: TCGAGTAGGTTAGTCGGGGCGTTCAGCCAACATA
1.73

Identify measured PBM binding z-score corresponding to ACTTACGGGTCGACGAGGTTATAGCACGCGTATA
0.585

Output PBM binding z-score of TCTTGTAGATCAATAGGAGGTTAAGAAAGATCGA
1.97

Item CGGACTGGGGCATAAGGTTACCATAAGCCAGCCC : provide PBM binding z-score
4.08

In one line, give reported PBM binding z-score of the entry CCGACTGGGGTATAAGGTTACCATAAGCCAGCCC .
1.17

Find the measured PBM binding z-score of GCTGCTAGGTCAGGTTGGTCAGCTACCGGGTACG and report it.
2.57

Quick one: give measured PBM binding z-score for GGAACGAGGGCAAACTTGATAGCATCTGTCGACG
4.42

State its PBM binding z-score for this sequence: CCTACTGGGCCACGAAAGGTCAGTGATTCAGTGA
4.86

Give the reported PBM binding z-score for this sequence. CAAACTAGGTCAAGGTCAGAGTCGGTTTGTGCCA
8.39
